# ASSAYED_SYSTEM: ΔF508-CFTR (Homo sapiens, UniProt P13569, DEL508-508)
# Construct: expressed in transfected cells
# Sequence (P13569 with tags, fused parts or gaps DEL508-508): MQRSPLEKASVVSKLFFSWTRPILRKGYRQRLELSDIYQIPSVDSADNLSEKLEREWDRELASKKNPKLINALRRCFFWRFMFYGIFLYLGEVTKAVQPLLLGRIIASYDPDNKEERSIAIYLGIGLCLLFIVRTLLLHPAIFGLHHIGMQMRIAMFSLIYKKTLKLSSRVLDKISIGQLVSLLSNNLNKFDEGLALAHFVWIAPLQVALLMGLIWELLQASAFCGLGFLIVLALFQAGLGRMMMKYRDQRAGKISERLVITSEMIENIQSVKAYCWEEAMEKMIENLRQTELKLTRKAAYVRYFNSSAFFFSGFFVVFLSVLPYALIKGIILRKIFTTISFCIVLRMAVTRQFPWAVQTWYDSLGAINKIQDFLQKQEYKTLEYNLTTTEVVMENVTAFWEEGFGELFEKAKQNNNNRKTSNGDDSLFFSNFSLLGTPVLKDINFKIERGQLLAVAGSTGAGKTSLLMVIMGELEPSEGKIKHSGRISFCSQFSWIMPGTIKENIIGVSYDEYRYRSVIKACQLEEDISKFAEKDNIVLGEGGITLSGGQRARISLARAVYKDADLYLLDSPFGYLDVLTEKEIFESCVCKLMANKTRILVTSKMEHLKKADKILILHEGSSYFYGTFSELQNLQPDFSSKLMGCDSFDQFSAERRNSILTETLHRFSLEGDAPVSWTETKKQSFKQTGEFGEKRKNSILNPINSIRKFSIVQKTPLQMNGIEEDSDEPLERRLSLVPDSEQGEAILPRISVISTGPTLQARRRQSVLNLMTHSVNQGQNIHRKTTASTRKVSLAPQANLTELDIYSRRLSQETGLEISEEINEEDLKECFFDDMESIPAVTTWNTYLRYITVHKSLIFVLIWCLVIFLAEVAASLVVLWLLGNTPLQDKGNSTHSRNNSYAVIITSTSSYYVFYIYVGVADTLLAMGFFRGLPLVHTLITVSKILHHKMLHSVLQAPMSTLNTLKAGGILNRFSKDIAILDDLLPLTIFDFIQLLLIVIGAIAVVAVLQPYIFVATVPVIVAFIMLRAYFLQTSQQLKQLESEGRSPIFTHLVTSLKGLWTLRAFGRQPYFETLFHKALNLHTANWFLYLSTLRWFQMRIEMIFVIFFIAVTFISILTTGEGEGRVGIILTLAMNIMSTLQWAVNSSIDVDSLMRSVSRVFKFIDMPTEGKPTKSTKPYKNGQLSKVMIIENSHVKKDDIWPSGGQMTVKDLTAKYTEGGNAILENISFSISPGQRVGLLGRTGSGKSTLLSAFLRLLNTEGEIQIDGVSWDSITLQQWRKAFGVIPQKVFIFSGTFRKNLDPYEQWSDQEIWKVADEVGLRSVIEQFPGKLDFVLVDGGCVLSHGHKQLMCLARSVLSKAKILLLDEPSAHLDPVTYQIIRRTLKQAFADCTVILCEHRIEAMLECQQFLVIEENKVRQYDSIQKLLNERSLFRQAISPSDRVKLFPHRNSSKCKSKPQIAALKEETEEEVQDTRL
# ASSAY_NOTES: Membrane potential optical (FRET/VIPR) assay, identification of potentiator compounds
# Type: cell-based
# STUDY_CONDITIONS: Table 3; relative efficacy; assay not given

| COMPOUND | % Activity |
| --- | --- |
| COC(=O)NCC(C)(C)c1ccc(NC(=O)c2c[nH]c3ccccc3c2=O)cc1 [Compound 323] | ++ (between 25% to 100%) |
| COc1ccc(NC(=O)c2c[nH]c3ccccc3c2=O)cc1OC [Compound 122] | + (<25%) |
| CC(C)(C)c1cccc(NC(=O)c2c[nH]c3ccc(F)cc3c2=O)c1 [Compound 664] | ++ (between 25% to 100%) |
| Cc1ccc(C#N)c(NC(=O)c2c[nH]c3ccccc3c2=O)c1 [Compound 89] | + (<25%) |
| O=C(Nc1cccc2[nH]ccc12)c1c[nH]c2ccccc2c1=O [Compound 100] | + (<25%) |
| Cc1ccc2[nH]cc(C(=O)Nc3ccc(N4CCCC4C)cc3C(F)(F)F)c(=O)c2c1 (stereo not shown) [Compound 503] | ++ (between 25% to 100%) |
| O=C(Nc1ccc(C(F)(F)F)cc1N1CCCCC1)c1c[nH]c2ccccc2c1=O [Compound 514] | ++ (between 25% to 100%) |
| O=C(Nc1ccc(-c2ccccc2CNC(=O)C(F)(F)F)cc1)c1c[nH]c2ccccc2c1=O [Compound 224] | ++ (between 25% to 100%) |
| CCC(C)c1ccc(NC(=O)c2c[nH]c3ccccc3c2=O)cc1 (stereo not shown) [Compound 310] | ++ (between 25% to 100%) |
| COc1cc(NC(=O)c2c[nH]c3ccccc3c2=O)cc2ccccc12 [Compound 717] | ++ (between 25% to 100%) |
| O=C(Nc1ccccc1N1CCOCC1)c1c[nH]c2ccccc2c1=O [Compound 4] | ++ (between 25% to 100%) |
| CCc1cccc(NC(=O)c2c[nH]c3ccccc3c2=O)n1 [Compound 125] | ++ (between 25% to 100%) |
| O=C(Nc1cc(O)c(Cl)cc1F)c1c[nH]c2ccccc2c1=O [Compound 695] | ++ (between 25% to 100%) |
| O=C(Nc1ccc2c(c1)OC(F)(F)C(F)(F)O2)c1c[nH]c2ccccc2c1=O [Compound 440] | ++ (between 25% to 100%) |
| O=C(Nc1cc2[nH]ccc2cc1C(F)(F)F)c1c[nH]c2cccc(O)c2c1=O [Compound 494] | ++ (between 25% to 100%) |

###

# ASSAYED_SYSTEM: ΔF508-CFTR (Homo sapiens, UniProt P13569, DEL508-508)
# ASSAY_NOTES: Membrane potential optical (FRET/VIPR) assay, identification of potentiator compounds
# STUDY_CONDITIONS: Table 3; assay not given
pEC50: −log10 of the molar value.

| MOLECULE | pEC50 |
| --- | --- |
| COc1ncc(-c2ccccc2NC(=O)c2c[nH]c3ccccc3c2=O)c(OC)n1 [Compound 97] | > 5.00 |
| O=C(Nc1ccc(-c2ccccc2)cc1)c1c[nH]c2ccccc2c1=O [Compound 397] | > 5.00 |
| CC1(C)CCN(c2ccc(NC(=O)c3c[nH]c4ccccc4c3=O)c(C(F)(F)F)c2)C1 [Compound 536] | > 5.00 |
| N#Cc1cc2ccc(NC(=O)c3c[nH]c4ccccc4c3=O)cc2[nH]1 [Compound 270] | > 5.00 |
| O=C(Nc1ccc2[nH]nnc2c1)c1c[nH]c2ccccc2c1=O [Compound 256] | 4.22 to 4.60 |
| O=C(Nc1ccc2c(c1)OC(F)(F)C(F)(F)O2)c1c[nH]c2ccccc2c1=O [Compound 440] | > 5.00 |
| O=C(Nc1cc2[nH]ccc2cc1C(F)(F)F)c1c[nH]c2cccc(O)c2c1=O [Compound 494] | > 5.00 |
| Cc1cccc2[nH]cc(C(=O)Nc3ccc(N4CC[C@H](F)C4)cc3C(F)(F)F)c(=O)c12 [Compound 626] | > 5.00 |
| CC(C)(C)c1ccc(NC(=O)c2c[nH]c3ccccc3c2=O)cc1F [Compound 645] | > 5.00 |
| CC(C)(C)c1cc(C(C)(C)C)c(NC(=O)c2c[nH]c3c(C(F)(F)F)cccc3c2=O)cc1O [Compound 580] | > 5.00 |
| O=C(Nc1ccc(OCc2ccccc2)cc1)c1c[nH]c2ccccc2c1=O [Compound 189] | > 5.00 |
| O=C(Nc1ccc(-c2ccccc2)cn1)c1c[nH]c2ccccc2c1=O [Compound 402] | > 5.00 |
| CCOc1ccccc1-c1cc2cc[nH]c2cc1NC(=O)c1c[nH]c2ccccc2c1=O [Compound 327] | > 5.00 |
| COc1ccccc1NC(=O)c1c[nH]c2ccccc2c1=O [Compound 80] | > 5.00 |
| COC(=O)Oc1c(NC(=O)c2c[nH]c3ccccc3c2=O)cc(F)cc1C(C)(C)C [Compound 288] | > 5.00 |
| Cc1cc(NC(=O)c2c[nH]c3ccccc3c2=O)ccc1F [Compound 257] | > 5.00 |
| O=C(Nc1cc(OCc2ccccc2)c(C2CCCCC2)cc1C(F)(F)F)c1c[nH]c2ccccc2c1=O [Compound 654] | > 5.00 |
| COc1c(N)cc(C(C)(C)C)cc1NC(=O)c1c[nH]c2ccccc2c1=O [Compound 55] | 4.22 to 4.60 |
| Cc1ccc(C)c(NC(=O)c2c[nH]c3ccccc3c2=O)c1 [Compound 434] | > 5.00 |
| CCc1ccc(NC(=O)c2c[nH]c3ccccc3c2=O)cc1N [Compound 8] | > 5.00 |
| O=C(Nc1ccc(C(F)(F)F)c(O)c1)c1c[nH]c2ccc(F)cc2c1=O [Compound 650] | > 5.00 |
| CC(=O)Nc1cccc(NC(=O)c2c[nH]c3ccccc3c2=O)c1 [Compound 419] | 4.22 to 4.60 |
| CC(C)c1ccc(N)cc1NC(=O)c1c[nH]c2ccccc2c1=O [Compound 101] | > 5.00 |
| CCOC(=O)Nc1cc(NC(=O)c2c[nH]c3ccccc3c2=O)ccc1C(C)(C)C [Compound 127] | > 5.00 |
| COc1ccc(NC(=O)c2c[nH]c3ccccc3c2=O)cc1N [Compound 378] | 4.60 to 5.00 |

###

# ASSAYED_SYSTEM: ΔF508-CFTR (Homo sapiens, UniProt P13569, DEL508-508)
# ASSAY_NOTES: Membrane potential optical (FRET/VIPR) assay, identification of potentiator compounds
# STUDY_CONDITIONS: Table 3; assay not given
pEC50: −log10 of the molar value.

| STRUCTURE | pEC50 |
| --- | --- |
| CCOCCOc1cc(NC(=O)c2c[nH]c3ccccc3c2=O)ccc1C(C)(C)C | > 5.00 |
| CC(C)(C)c1ccc(NC(=O)c2c[nH]c3ccccc3c2=O)cc1CN | 4.22 to 4.60 |
| O=C(Nc1ccccc1-c1cccc(Cl)c1Cl)c1c[nH]c2ccccc2c1=O | > 5.00 |
| NS(=O)(=O)c1ccccc1NC(=O)c1c[nH]c2ccccc2c1=O | 4.22 to 4.60 |
| COC(=O)Nc1cc(NC(=O)c2c[nH]c3ccccc3c2=O)ccc1C(C)C | > 5.00 |
| O=C(Nc1ccc2nc(-c3ccccc3)[nH]c2c1)c1c[nH]c2ccccc2c1=O | 4.22 to 4.60 |
| CC(C)(C)c1cc(C(C)(C)C)c(NC(=O)c2c[nH]c3cc(OC(F)(F)F)ccc3c2=O)cc1O | > 5.00 |

###

# ASSAYED_SYSTEM: ΔF508-CFTR (Homo sapiens, UniProt P13569, DEL508-508)
# Construct: expressed in transfected cells
# ASSAY_NOTES: Membrane potential optical (FRET/VIPR) assay, identification of potentiator compounds
# Format: cell-based
# STUDY_CONDITIONS: Table 3; relative efficacy; assay not given
QUANTITY_NAME: % Activity

| STRUCTURE | OBS_VALUE |
| --- | --- |
| COc1nc2ccccc2c(OC)c1C(=O)Nc1ccccc1-c1ccccc1 | ++ (between 25% to 100%) |
| CC(C)(C)c1cc(C(C)(C)C)c(NC(=O)c2c[nH]c3cccc(C(F)(F)F)c3c2=O)cc1O | ++ (between 25% to 100%) |
| C[C@H]1CCCCN1c1ccc(NC(=O)c2c[nH]c3ccccc3c2=O)c(C(F)(F)F)c1 | +++ (>100%) |
| O=C(Nc1ccccc1)c1c[nH]c2ccccc2c1=O | ++ (between 25% to 100%) |
| CC(C)(C)c1cc(C(C)(C)C)c(NC(=O)c2c[nH]c3cc(C#N)ccc3c2=O)cc1O | ++ (between 25% to 100%) |
| Cc1cc(N2CCCC2)ccc1NC(=O)c1c[nH]c2ccccc2c1=O | +++ (>100%) |
| CC(C)(C)c1ccc(NC(=O)c2c[nH]c3cccc(O)c3c2=O)cc1O | ++ (between 25% to 100%) |
| Cc1ccc(C(F)(F)F)cc1NC(=O)c1c[nH]c2ccccc2c1=O | ++ (between 25% to 100%) |
| Cc1cc2cc(NC(=O)c3c[nH]c4ccccc4c3=O)ccc2[nH]1 | ++ (between 25% to 100%) |
| O=C(Nc1ccc2cc[nH]c2c1)c1c[nH]c2cccc(O)c2c1=O | ++ (between 25% to 100%) |
| O=C(Nc1ccccc1-c1cccc(Cl)c1Cl)c1c[nH]c2ccccc2c1=O | ++ (between 25% to 100%) |
| O=C(Nc1cccnc1Oc1ccc(F)cc1)c1c[nH]c2ccccc2c1=O | ++ (between 25% to 100%) |
